system_under_test: CH505.M10D8gp120
protocol_notes: ELISA
Quick reference: LogAUC of the listed items.

{"binder": "CH555 (antibody, V domains shown, also called CH235.10) VH: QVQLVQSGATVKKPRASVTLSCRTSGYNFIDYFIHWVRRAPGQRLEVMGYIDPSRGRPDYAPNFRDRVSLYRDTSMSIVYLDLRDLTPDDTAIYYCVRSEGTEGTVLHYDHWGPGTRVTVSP VL: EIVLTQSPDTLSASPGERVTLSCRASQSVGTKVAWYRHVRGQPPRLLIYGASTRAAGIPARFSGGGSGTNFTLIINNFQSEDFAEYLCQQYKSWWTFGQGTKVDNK", "LogAUC": 1.06}
{"binder": "CH241 (antibody, V domains shown) VH: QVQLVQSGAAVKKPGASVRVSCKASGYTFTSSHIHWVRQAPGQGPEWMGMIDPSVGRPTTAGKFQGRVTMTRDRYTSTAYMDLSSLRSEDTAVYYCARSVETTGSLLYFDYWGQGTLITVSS VL: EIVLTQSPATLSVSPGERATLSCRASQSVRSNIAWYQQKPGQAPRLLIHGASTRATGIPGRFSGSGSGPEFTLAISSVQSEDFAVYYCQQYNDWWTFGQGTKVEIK", "LogAUC": 14.4}
{"binder": "CH236 (antibody, V domains shown, also called CH236_4A/293i) VH: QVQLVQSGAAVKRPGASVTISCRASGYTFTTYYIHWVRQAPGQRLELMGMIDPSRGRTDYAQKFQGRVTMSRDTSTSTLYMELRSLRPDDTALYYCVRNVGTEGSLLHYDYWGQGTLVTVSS VL: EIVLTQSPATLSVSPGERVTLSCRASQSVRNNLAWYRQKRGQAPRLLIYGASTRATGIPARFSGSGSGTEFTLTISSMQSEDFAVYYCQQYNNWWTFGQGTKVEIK", "LogAUC": 6.07}

Numbers sourced from patent US10450368.
